The following molecules are listed with their measured CC50 at 48 h values.
# procedureText: Human tumor cell line growth assay (SRB)
# Format: cell-based
# experimentalConditions: human, A549/ATCC cells (NSCLC), read-out: LC50

Some entries whose results are on file:
molecule	CC50 at 48 h
COc1ccc2c(c1)c1nc3cc(C)c(C)cc3nc1n2CCN(C)C	7.97 µM
Cc1cc2nc3c4cc(N)ccc4n(CCN(C)C)c3nc2cc1C	> 100 µM
Cc1cc2nc3c4ccccc4n(CCN(C)C)c3nc2cc1C [B220, reference compound]	> 100 µM

Alright, here's another molecule for you.
Query: CC50 at 48 h; subject: Cc1cc2nc3c4cc([N+](=O)[O-])ccc4n(CCN(C)C)c3nc2cc1C
94.4 µM

###

# Test system: MOLT-4
# procedureText: Human tumor cell line growth assay (SRB)
# Format: cell-based
# experimentalConditions: Homo sapiens; Leukemia, MOLT-4, 48 h
The following molecules are listed with their measured GI50 values.
// units = nM; emit number, no label

Some entries whose results are on file:
molecule	measurement
COc1ccc2c(c1)c1nc3cc(C)c(C)cc3nc1n2CCN(C)C	420
Cc1cc2nc3c4cc(O)ccc4n(CCN(C)C)c3nc2cc1C	359
Cc1cc2nc3c4ccccc4n(CCN(C)C)c3nc2cc1C [B220, reference compound]	555
Cc1cc2nc3c4cc(N)ccc4n(CCN(C)C)c3nc2cc1C	366

Alright, here's another molecule for you.
Query: GI50; subject: Cc1cc2nc3c4cc([N+](=O)[O-])ccc4n(CCN(C)C)c3nc2cc1C
368

###

# procedureText: Human tumor cell line growth assay (SRB)
# Type: cell-based
# experimentalConditions: human, SK-MEL-28 cells (melanoma), SK-MEL-28, 48 h, read-out: LC50
The following compounds are listed with their measured CC50 at 48 h values.
Answer format: number, then unit.

Query: CC50 at 48 h; subject: Cc1cc2nc3c4ccccc4n(CCN(C)C)c3nc2cc1C [B220, reference compound]
9.45 µM

Query: CC50 at 48 h; subject: Cc1cc2nc3c4cc(N)ccc4n(CCN(C)C)c3nc2cc1C
11.4 µM

Query: CC50 at 48 h; subject: Cc1cc2nc3c4cc([N+](=O)[O-])ccc4n(CCN(C)C)c3nc2cc1C
5.65 µM

Query: CC50 at 48 h; subject: COc1ccc2c(c1)c1nc3cc(C)c(C)cc3nc1n2CCN(C)C
6.76 µM

###

Below are molecules with their GI50 as measured on SW-620.
// units = µM; emit number, no label

molecule	unitSymbol	measurement
Cc1cc2nc3c4cc(N)ccc4n(CCN(C)C)c3nc2cc1C	µM	0.389
Cc1cc2nc3c4cc(O)ccc4n(CCN(C)C)c3nc2cc1C	µM	0.32
Cc1cc2nc3c4cc([N+](=O)[O-])ccc4n(CCN(C)C)c3nc2cc1C	µM	0.302
COc1ccc2c(c1)c1nc3cc(C)c(C)cc3nc1n2CCN(C)C	µM	0.454

Alright, here's another molecule for you.
Query: GI50; subject: Cc1cc2nc3c4ccccc4n(CCN(C)C)c3nc2cc1C [B220, reference compound]
0.54

###

# procedureText: Human tumor cell line growth assay (SRB)
# Format: cell-based
# experimentalConditions: human, MALME-3M cells (melanoma), read-out: LC50
The following compounds are listed with their measured CC50 at 48 h values.
// units = µM; emit number, no label

compound	CC50 at 48 h / µM
Cc1cc2nc3c4cc([N+](=O)[O-])ccc4n(CCN(C)C)c3nc2cc1C	5.1
COc1ccc2c(c1)c1nc3cc(C)c(C)cc3nc1n2CCN(C)C	5.77

Query: CC50 at 48 h; subject: Cc1cc2nc3c4ccccc4n(CCN(C)C)c3nc2cc1C [B220, reference compound]
53.3

Query: CC50 at 48 h; subject: Cc1cc2nc3c4cc(N)ccc4n(CCN(C)C)c3nc2cc1C
7.43
